Origin of values: the nanobody polyreactivity screen of Harvey et al. (2022)

experiment: yeast display, Sf9 membrane polyspecificity reagent, FACS + sequencing; frameworks hold sequencing errors
readout.name: polyreactivity (PSR sort gate)

1. QVQLVESGGGLVQAGGSLRLSCAASGRTFSFYAMGWYRPAPGKERELVAAISSGTRTYYADSVKGRFTISRDNAKNTFYLQMNSLKPEDTAVYYCAARPKWTASWYYYWGQGTQVTVSS
high polyreactivity
2. QVQLVESGGGLVQAGGSLRLSCAAPGYIFEFYAMGWYRQAPGKERELVAAISWRGGSTYADSVKGRFTISRDNAKNTVYLQMNSLKPEDTAVYYCNADVEGRYDWTENDYWGQGTQVTVSS
low polyreactivity
3. QVQLVESGGGLVQAGGSLRLSCAASGSTFIDYAMGWYRQAPGKERELVAGGSTNYADSVKGRFTISRDNAKNTVYLQMNSLKPEYTAVYYCNADALLYPYWGFDYWGQGTQVTVSS
low polyreactivity
4. QVQLVESGGGLVQAGGSLRLSCAASGSIFGYNTMGRYRQAPGKERELVAAISYRGGSTYADSVKGRFTISRDNAKNTVYLQMNSLKPEDTAVYYCAKRSIVGYRYSGYDYWGQGTQVTVSS
high polyreactivity
5. QVQLVESGGGLVQAGGSLRLSCAASGSTFLKYAMGWYRQAPGKERELVAAISRSGTSTYYADSVKGRFTISRDNAKNTVYLQMNSLKPEDTAVYYCAARWIRSNTQYDYWGQGTQVTVSS
high polyreactivity
